# Tested on: HL-60(TB)
# METHOD: Growth inhibition of human HL-60(TB) cells at 10^-5 M after 48 hrs by Sulforhodamine B assay relative to control
# Format: functional
# MEASUREMENT SETUP: HL-60, 48 h, read-out: GI
# inhibition of growth at 10 µM values compiled below
Please reply with the bare figure in % and do not write the unit itself.

Please fill in: inhibition of growth at 10 µM reported for Clc1nc(-c2ccccn2)nc2sc3c(c12)CCCCCC3 = 3.98

Please fill in: inhibition of growth at 10 µM reported for NNc1nc(-c2ccncc2)nc2sc3c(c12)CCCCCC3 = 16.4

Please fill in: inhibition of growth at 10 µM reported for c1cc(-c2nc(N3CCOCC3)c3c4c(sc3n2)CCCCCC4)ccn1 = 24.6

Please fill in: inhibition of growth at 10 µM reported for CN1CCN(c2nc(-c3ccccn3)nc3sc4c(c23)CCCCCC4)CC1 = 4.37

Please fill in: inhibition of growth at 10 µM reported for Clc1nc(-c2ccncc2)nc2sc3c(c12)CCCCCC3 = 3.12

Please fill in: inhibition of growth at 10 µM reported for c1ccc(N2CCN(c3nc(-c4ccncc4)nc4sc5c(c34)CCCCCC5)CC2)cc1 = 2.53

Please fill in: inhibition of growth at 10 µM reported for COc1ccc(N2CCN(c3nc(-c4ccncc4)nc4sc5c(c34)CCCCCC5)CC2)cc1 = 15.2
